Documented Ki across a set of compounds
# target: Human Recombinant Matriptase 2 (Homo sapiens, UniProt Q8IU80)
# Construct: made in house
# assay remarks: Matriptase 2 inhibition, fluorescence based assay (Method I)
# Assay type: biochemical
# test settings: Table A; Ki of Matriptase-2 given as class symbols; read-out: Mat-2 Ki

Examples from the recorded data:
NCc1ccc2cc(C(=O)O)n(Cc3cc(NS(=O)(=O)C[C@H]4CCCO4)cc4ccccc34)c2n1 (racemic) [Compound 257] :: 0.1 to 0.5 µM
NCc1ccc2cc(C(=O)OCCO)n(Cc3cc(NS(=O)(=O)CC[C@@H]4CCCN4)cc4ccccc34)c2n1 [Compound 260] :: 0.1 to 0.5 µM
CN1CCC(COC(=O)c2cc3ccc(CN)nc3n2Cc2cc(NS(=O)(=O)Cc3ccc(F)cc3)cc3ccccc23)CC1 [Compound 206] :: ≤ 0.1 µM
COCCN1CCC(CS(=O)(=O)Nc2cc(Cn3c(C(=O)O)cc4ccc(CN)nc43)c3ccccc3c2)CC1 [Compound 211] :: ≤ 0.1 µM
COCCN1CCC(CS(=O)(=O)Nc2cc(Cn3c(C(=O)OCC4CCN(C)CC4)cc4ccc(CN)nc43)c3ccccc3c2)CC1 [Compound 253] :: 0.5 to 3 µM

Would you kindly share the measured Ki for CC(C)[C@H]1CCN(C(=O)Nc2cc(Cn3c(C(=O)O)cc4ccc(CN)nc43)c3ccccc3c2)C1 (racemic) [Compound 303] ?
0.5 to 3 µM

Repeat for the following compound: NCc1ccc2cc(C(=O)O)n(Cc3cc(NS(=O)(=O)Cc4ccoc4)cc4ccccc34)c2n1 [Compound 220]
0.1 to 0.5 µM

* * *

# target: Human Recombinant Matriptase 2 (Homo sapiens)
# Construct: made in house
# assay remarks: Matriptase 2 inhibition, fluorescence based assay (Method I)
# Assay type: biochemical
# test settings: Table A; Ki of Matriptase-2; read-out: Mat-2 Ki
reported metric: Ki

Would you kindly share the measured Ki for NCc1ccc2cc(C(=O)OCCCN3CCOCC3)n(Cc3cc(NS(=O)(=O)Cc4ccsc4)cc4ccccc34)c2n1 ?
≤ 100 nM

Repeat for the following compound: CC(C)n1cnc(COC(=O)c2cc3ccc(CN)nc3n2Cc2cc(NS(=O)(=O)Cc3ccccc3)cc3ccccc23)c1
100 to 500 nM

Repeat for the following compound: Cn1ccnc1COC(=O)c1cc2ccc(CN)nc2n1Cc1cc(NS(=O)(=O)Cc2ccccc2)cc2ccccc12
≤ 100 nM

Repeat for the following compound: CNCCNC(=O)c1cc2ccc(CN)nc2n1Cc1cc(NS(=O)(=O)Cc2ccccc2)cc2ccccc12
≤ 100 nM

* * *

# target: Human Recombinant Matriptase 2 (Homo sapiens)
# Construct: made in house
# Sequence (Q8IU80 1-811): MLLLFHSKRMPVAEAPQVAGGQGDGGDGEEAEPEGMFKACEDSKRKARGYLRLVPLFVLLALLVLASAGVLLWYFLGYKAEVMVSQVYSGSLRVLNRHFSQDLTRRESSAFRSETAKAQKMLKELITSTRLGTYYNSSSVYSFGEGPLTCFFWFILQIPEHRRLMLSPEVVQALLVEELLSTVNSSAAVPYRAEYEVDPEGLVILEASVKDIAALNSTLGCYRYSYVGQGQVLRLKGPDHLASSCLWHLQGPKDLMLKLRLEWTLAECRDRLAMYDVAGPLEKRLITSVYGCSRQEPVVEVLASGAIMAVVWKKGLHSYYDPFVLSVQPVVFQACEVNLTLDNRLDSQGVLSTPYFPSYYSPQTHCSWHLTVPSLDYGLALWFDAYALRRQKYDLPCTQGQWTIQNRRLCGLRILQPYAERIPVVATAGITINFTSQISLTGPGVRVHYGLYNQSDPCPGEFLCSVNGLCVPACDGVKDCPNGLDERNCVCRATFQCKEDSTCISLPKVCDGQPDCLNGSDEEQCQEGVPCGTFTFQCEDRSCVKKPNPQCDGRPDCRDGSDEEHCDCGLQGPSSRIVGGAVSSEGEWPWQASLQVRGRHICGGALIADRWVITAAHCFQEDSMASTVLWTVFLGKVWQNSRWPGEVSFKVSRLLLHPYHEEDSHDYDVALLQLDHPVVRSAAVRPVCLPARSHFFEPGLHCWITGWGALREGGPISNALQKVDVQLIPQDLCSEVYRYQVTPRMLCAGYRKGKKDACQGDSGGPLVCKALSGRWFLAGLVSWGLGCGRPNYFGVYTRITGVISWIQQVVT
# assay remarks: Matriptase 2 inhibition, fluorescence based assay (Method I)
# Assay type: biochemical
# test settings: Table A; Ki of Matriptase-2; read-out: Mat-2 Ki
reported metric: Ki

Examples from the recorded data:
CN(C)CCCCOC(=O)c1cc2ccc(CN)nc2n1Cc1cc(NS(=O)(=O)Cc2ccccc2)cc2ccccc12 :: ≤ 100 nM
NCc1ccc2cc(C(=O)OCCN3CCOCC3)n(Cc3cc(NS(=O)(=O)Cc4ccccc4)cc4ccccc34)c2n1 :: ≤ 100 nM
NCc1ccc2cc(C(=O)OCCN3CCS(=O)(=O)CC3)n(Cc3cc(NS(=O)(=O)Cc4ccccc4)cc4ccccc34)c2n1 :: ≤ 100 nM
CC(C)n1cncc1COC(=O)c1cc2ccc(CN)nc2n1Cc1cc(NS(=O)(=O)Cc2ccccc2)cc2ccccc12 :: ≤ 100 nM
CN(C)CCNC(=O)c1cc2ccc(CN)nc2n1Cc1cc(NS(=O)(=O)Cc2ccccc2)cc2ccccc12 :: ≤ 100 nM
NCc1ccc2cc(C(=O)OCCn3ccnn3)n(Cc3cc(NS(=O)(=O)Cc4ccccc4)cc4ccccc34)c2n1 :: 100 to 500 nM

Now consider the entry below.
Would you kindly share the measured Ki for NCc1ccc2cc(C(=O)OCC3CCNCC3)n(Cc3cc(NS(=O)(=O)Cc4ccccc4)cc4ccccc34)c2n1 ?
≤ 100 nM
